Cited source: paper PMC12040169

run.description: in vitro
settings: human, hela cells, % viability
observable: viability at 28.5 h, 10 µM (%)
The reply should be a number in %, with the unit left off.

# lookup: viability at 28.5 h, 10 µM of CC1(C)CCCC1NC(=O)NCc1cccc(-c2nnc[nH]2)c1 (centres unmarked) [CBK305236]
83.9

# lookup: viability at 28.5 h, 10 µM of COc1ccc(OC(C)C(=O)Nc2cc3oc4ccccc4c3cc2OC)cc1 (centres unmarked) [CBK266751]
100

# lookup: viability at 28.5 h, 10 µM of CCOc1cccc(-c2cncc(N(C)CCN(C)C)n2)c1 [CBK065977]
102

# lookup: viability at 28.5 h, 10 µM of CC(NCCCN(C)C)=C1C(=O)c2ccccc2C1=O [CBK262674]
81.6

# lookup: viability at 28.5 h, 10 µM of O=C1CC(c2cccnc2)=NN1c1ccc(Cl)cc1Cl [CBK067764]
97.7

# lookup: viability at 28.5 h, 10 µM of O=C(CCN1C(=O)[C@@H]2Cc3ccccc3CN2C1=O)N[C@H](C(=O)O)c1ccccc1 [CBK286751]
88.7

# lookup: viability at 28.5 h, 10 µM of O=C(Nc1sc2c(c1C(=O)NCc1cccnc1)CCC2)c1ccco1 [CBK269599]
81

# lookup: viability at 28.5 h, 10 µM of O=C(O)CNC(=O)CCS(=O)(=O)c1ccc(F)cc1 [CBK286580]
86.1

# lookup: viability at 28.5 h, 10 µM of COC(=O)CC1C(=O)NCCN1C(=S)NC(=O)c1ccc(-c2ccccc2)cc1 (centres unmarked) [CBK268711]
105

# lookup: viability at 28.5 h, 10 µM of N=C1NC(=O)/C(=C/c2ccc(OS(=O)(=O)c3ccc4ccccc4c3)cc2)S1 [CBK263605]
106

# lookup: viability at 28.5 h, 10 µM of Cc1cc(Cl)ccc1NC(=S)NCCc1ccc(S(N)(=O)=O)cc1 [CBK264888]
88.5

# lookup: viability at 28.5 h, 10 µM of CC1CCN(c2nnnc3c2sc2nc(N4CCOCC4)c4c(c23)CC(C)(C)SC4)CC1 [CBK268062]
90.4

# lookup: viability at 28.5 h, 10 µM of Cc1nc(CN2CCC3(CC2)CN(C(=O)C(C)C)c2ccccc23)cs1 [CBK131476]
108

# lookup: viability at 28.5 h, 10 µM of O=c1c2c3c(sc2n2c(S)nnc2n1Cc1ccccc1)CN(Cc1ccccc1)CC3 [CBK262973]
95

# lookup: viability at 28.5 h, 10 µM of Cc1cc(COc2ccnc(N3CCCN(CC4CC4)CC3)n2)no1 [CBK084073]
91.1

# lookup: viability at 28.5 h, 10 µM of O=C(c1cncnc1)N1Cc2ccccc2C1 [CBK200223]
106

# lookup: viability at 28.5 h, 10 µM of O=C(CCN1CCCCC1)NC1Cc2ccccc2C1 [CBK200364]
98.3

# lookup: viability at 28.5 h, 10 µM of Cn1c(=O)n(CC(=O)NCc2cccc(F)c2)c2cccnc21 [CBK283911]
105

# lookup: viability at 28.5 h, 10 µM of CCc1cccc2c(CC(=O)NC3CCCOC3)c(C)[nH]c12 (centres unmarked) [CBK282584]
105

# lookup: viability at 28.5 h, 10 µM of Cc1noc(C)c1NC(=O)c1cccn1C [CBK200304]
101

* * *

run.description: in vitro
settings: human, hela cells, % viability
observable: viability at 28.5 h, 10 µM (%)
The reply should be a number in %, with the unit left off.

# lookup: viability at 28.5 h, 10 µM of `CN1CCN(CC(=O)Nc2sc3c(c2C(=O)NCc2ccccc2)CCCC3)CC1`
102

# lookup: viability at 28.5 h, 10 µM of Cc1ccc(C2=NN(C(=O)CCC(=O)O)C(c3cc4cccc(C)c4[nH]c3=O)C2)cc1 (centres unmarked)
91

# lookup: viability at 28.5 h, 10 µM of CCC1CCCCN1Cc1nc2c(c(=O)n(C)c(=O)n2C)n1CCCO (centres unmarked)
91.8

# lookup: viability at 28.5 h, 10 µM of COc1cc(C(C)=O)ccc1OCCCN1CCC(O)(C(=O)c2ccc(F)cc2)CC1 [CBK025271C]
85.8

# lookup: viability at 28.5 h, 10 µM of `c1ccc(-n2nnnc2SCc2cccc(CSc3nnnn3-c3ccccc3)n2)cc1`
90.4

* * *

run.description: in vitro
settings: human, hela cells, % viability
observable: viability at 28.5 h, 10 µM (%)
The reply should be a number in %, with the unit left off.

# lookup: viability at 28.5 h, 10 µM of CSc1nnc(-c2cccs2)n1C [CBK067702]
87.9

# lookup: viability at 28.5 h, 10 µM of COc1ccc(-n2c(SCC(=O)O)nnc2-c2cccs2)cc1 [CBK265636]
118

# lookup: viability at 28.5 h, 10 µM of O=S(=O)(NCC(c1ccccc1)n1cc(-c2ccccc2)nn1)c1ccccc1 (stereo not shown) [CBK268244]
85.2

# lookup: viability at 28.5 h, 10 µM of COc1cc(Nc2cc(-c3cccc(N)c3)ncn2)cc(OC)c1OC [CBK037713]
117

# lookup: viability at 28.5 h, 10 µM of COC(=O)C[C@@H](C)NC(=O)[C@](OC)(c1ccccc1)C(F)(F)F [CBK017864]
98.6

# lookup: viability at 28.5 h, 10 µM of CNC(=O)c1ccc(-c2ccc3[nH]ccc3c2)nc1N(C)C [CBK106146]
90.9

# lookup: viability at 28.5 h, 10 µM of CCOc1cc(CNc2nc[nH]n2)cc(Cl)c1OCc1ccccc1F [CBK288088]
103

# lookup: viability at 28.5 h, 10 µM of O=C(Nc1nnc(C2=COCCO2)o1)c1ccco1 [CBK287412]
95.5

# lookup: viability at 28.5 h, 10 µM of Cc1c(C(c2ccc(C(=O)O)cc2)c2c(C)n(C)n(-c3ccccc3)c2=O)c(=O)n(-c2ccccc2)n1C [CBK261691]
102

# lookup: viability at 28.5 h, 10 µM of O=C1NC2=C(C(=O)N(CCN3CCCC3)C2)C(c2ccccc2)N1 (stereo not shown) [CBK283493]
103

# lookup: viability at 28.5 h, 10 µM of O=C1NCCCC12CCN(Cc1cccc3ncccc13)CC2 [CBK285033]
101

# lookup: viability at 28.5 h, 10 µM of Cc1ccc(NC(=O)Cc2ccncc2)c(C)n1 [CBK200385]
90

# lookup: viability at 28.5 h, 10 µM of O=C(NCc1ccccn1)c1cc(-c2ccc(Cl)cc2)on1 [CBK116558]
83.8

# lookup: viability at 28.5 h, 10 µM of O=C1CC2(CCC3C(C(=O)N4CCCCC4)C32)Oc2ccccc21 (stereo not shown) [CBK284947]
105

# lookup: viability at 28.5 h, 10 µM of CCCCOC(=O)c1ccc(NC(=O)c2c(Cl)cccc2Cl)cc1 [CBK263664]
88.2

# lookup: viability at 28.5 h, 10 µM of COc1ccc(CSc2nc(O)cc(C(F)(F)F)n2)cc1 [CBK001217]
85

# lookup: viability at 28.5 h, 10 µM of Fc1cc(Cl)ccc1NC(=S)NCCN1CCOCC1 [CBK268441]
98.4

# lookup: viability at 28.5 h, 10 µM of Cc1cc(COc2cc(N3CCCN(Cc4ccc5c(c4)OCO5)CC3)ncn2)no1 [CBK083335T]
95.7

# lookup: viability at 28.5 h, 10 µM of Cc1cc(C)n(C(C)CC(=O)N2CCN(C)CC2c2ccccc2)n1 (stereo not shown) [CBK282014]
92.2

# lookup: viability at 28.5 h, 10 µM of Cc1cc(NS(=O)(=O)c2cccc([N+](=O)[O-])c2)n(C)n1 [CBK067243]
99.2

# lookup: viability at 28.5 h, 10 µM of Cc1cnccc1CN1CCC[C@@H]2CN(C(=O)CC(C)C)C[C@@H]21 [CBK285289]
104

# lookup: viability at 28.5 h, 10 µM of O=C(NCCOc1ccccc1)N1CCN(c2ccccc2)CC1 [CBK155198]
88.5

# lookup: viability at 28.5 h, 10 µM of CC(C)C(=O)N1CCCC(n2c(=O)oc3ccc(Cl)cc32)C1 (stereo not shown) [CBK282890]
95.3

# lookup: viability at 28.5 h, 10 µM of Cc1nc(-c2ccccc2F)sc1C(=O)Nc1ccccn1 [CBK287979]
98.8

# lookup: viability at 28.5 h, 10 µM of Nc1cc2cccnc2nc1-c1cc(F)cc(F)c1 [CBK067604]
88.3

# lookup: viability at 28.5 h, 10 µM of COc1ccc(NC(=O)CSc2nc(O)cc(=O)[nH]2)cc1 [CBK261747]
88.8

# lookup: viability at 28.5 h, 10 µM of Cc1cc2c(cc3c(=O)n(CC(=O)N4CCC(C)CC4)nc(C)n32)o1 [CBK283590]
90.1

# lookup: viability at 28.5 h, 10 µM of COc1ccccc1-c1cccc(CC2(C(=O)NCCc3ccccc3)CCOCC2)c1 [CBK285593]
93.6

# lookup: viability at 28.5 h, 10 µM of CCn1nc(C)c(CN(C)Cc2nc3ccccc3[nH]2)c1C [CBK282126]
93.9

# lookup: viability at 28.5 h, 10 µM of COc1cc(/C=N/Nc2nonc2N)cc(OC)c1OC [CBK025758]
73.2

# lookup: viability at 28.5 h, 10 µM of O=C(O)COc1ccc(S(=O)(=O)N2CCc3ccccc32)cc1 [CBK269882]
102

# lookup: viability at 28.5 h, 10 µM of COCCCNC(=O)c1cccs1 [CBK009164]
91.8

# lookup: viability at 28.5 h, 10 µM of COc1ccc2[nH]cc(CCNC(=O)Cc3ccsc3)c2c1 [CBK116205]
91.3

# lookup: viability at 28.5 h, 10 µM of Cn1ncc(N2CCC(CNC(=O)c3ccc(F)cc3Cl)C2)cc1=O (stereo not shown) [CBK306643]
97.1

# lookup: viability at 28.5 h, 10 µM of CCN1CCCC(NC(=O)COc2nn(C)c3nc(C)cc(C)c23)C1 (stereo not shown) [CBK305224]
113

# lookup: viability at 28.5 h, 10 µM of O=C(O)[C@@H]1CC(O)CN1C(=O)c1ccc2noc(-c3ccccc3)c2c1 (stereo partly shown) [CBK286736]
86.1

# lookup: viability at 28.5 h, 10 µM of COc1ccccc1CN(C)C(C)=O [CBK024120]
118

# lookup: viability at 28.5 h, 10 µM of CCOCCn1nc(C)cc1C(=O)NC(CC)c1cn2cccnc2n1 (stereo not shown) [CBK307377]
79

# lookup: viability at 28.5 h, 10 µM of CCOCC1CCN(C(=O)c2ncsc2Nc2cccnc2)C1 (stereo not shown) [CBK304514]
110

# lookup: viability at 28.5 h, 10 µM of COc1ccccc1-c1nccnc1N[C@@H](CO)C(C)C [CBK089034]
93.6
